The reported numbers originate from paper PMC11494662.

Entries with their measured MIC, system S. aureus ATCC 43300:

See these solved cases before continuing.
C[C@@H]1CC[C@@]2(OC1)O[C@H]1C[C@H]3[C@@H]4CC=C5C[C@@H](O[C@@H]6CC[C@H](O)[C@@H](CO)O6)CC[C@]5(C)[C@H]4CC[C@]3(C)[C@H]1[C@@H]2C [13α]	> 256 µg/mL
C[C@@H]1CC[C@@]2(OC1)O[C@H]1C[C@H]3[C@@H]4CC=C5C[C@@H](O[C@@H]6CC[C@@H](O)[C@@H](CO)O6)CC[C@]5(C)[C@H]4CC[C@]3(C)[C@H]1[C@@H]2C [14α]	128 µg/mL

Turning now to a further molecule:
*Q* Provide value of MIC for this record tested with S. aureus ATCC 43300: C[C@@H]1CC[C@@]2(OC1)O[C@H]1C[C@H]3[C@@H]4CC=C5C[C@@H](O[C@@H]6C=C[C@@H](O)[C@@H](CO)O6)CC[C@]5(C)[C@H]4CC[C@]3(C)[C@H]1[C@@H]2C [8α]
*A* > 256 µg/mL
